tested on: U251 CNS; assay: NCI tumour cell line growth inhibition, 48 h
For each of the compounds below, state its TGI.

CCCCCCCCCCCCCCCCOCC(CC(F)(F)P(=O)(OCC)OCC)OC(C)=O (centres undefined): 13.7 µM
O=S(Nc1ccccc1)c1cccc(Cl)c1 (centres undefined): > 100 µM
S=C1N(/N=C/c2c3ccccc3cc3ccccc23)C(=Nc2ccccc2)C(=Nc2ccccc2)N1c1ccccc1: > 100 µM
CC(C)(C)c1cc(C2=NNC(c3ccccc3)C2)cc(C(C)(C)C)c1O (centres undefined): 28.8 µM

Hey, quick one: what's TGI for each of these?
1. COC(=O)/C(=N\NC(=O)C[N+](C)(C)C)C(C(=O)OC)C(=O)C(=O)Nc1ccccc1C(N)=O (centres undefined)
2. Cc1cc(NCCN(C(C)C)C(C)C)nc(/N=C(\N)Nc2ccc(Cl)c(C(F)(F)F)c2)n1
3. CN[C@H](C#Cc1c(F)ccc2c1/C(=C/c1[nH]ccc1OC)C(=O)N2)CO
4. COc1ccc(-c2nc(/C=N/Nc3cc(C)nc4ccc(Cl)cc34)c(C)o2)cc1

## Output
["> 100 µM", "0.4 µM", "2.94 µM", "3.28 µM"]

For every item in the list below, what is its measured TGI?
1. O=C(NC(=O)c1cn(CCN(CCO)C(=O)NCCCCCCNC(=O)N(CCO)CCn2cc(C(=O)NC(=O)OCc3ccccc3)c(=O)[nH]c2=O)c(=O)[nH]c1=O)OCc1ccccc1
2. O=C(OCN1C(=O)C2C3C=CC(C2C1=O)C1C2C(=O)N(COC(=O)C4CCCN4)C(=O)C2C31)C1CCCN1 (centres undefined)
3. O=c1c2nc3ccccc3c(=O)n2ncn1-c1ccccc1Cl
4. Cc1cn(C2CC(O)C(COC(=O)NCCC(F)(F)C(F)(F)C(F)(F)C(F)(F)F)O2)c(=O)[nH]c1=O (centres undefined)

## Output
> 100 µM
> 67.5 µM
> 100 µM
> 100 µM

Return reported TGI values for all items listed beneath this line.
1. CN(C)CCNC(=O)c1cc([N+](=O)[O-])cc2c1Oc1ccccc1O2
2. Cc1ccc(NC2=CC(=O)C(NO)c3ccccc32)cc1 (centres undefined)
3. CC(=O)OC[C@]12CC[C@@H](C(=O)CBr)[C@@H]1[C@H]1CC[C@@H]3[C@@]4(C)CCCNC(C)(C)[C@@H]4CC[C@@]3(C)[C@]1(C)CC2

## Output
1: > 100 µM; 2: 11.9 µM; 3: 25.4 µM

Field: TGI. Fill in for each record below.
1. CC1CN(c2ccc(Cl)cc2)CC(C)OC(=O)O1 (centres undefined)
2. Cc1ccc(/C=C/c2nnc(N/N=C/c3ccc4c(c3)OCO4)[nH]c2=O)cc1
3. c1csc(-c2cn3nc(-c4c[nH]c5ccccc45)sc3n2)c1
4. O=C(Nc1ccncc1)C(=O)c1cn(Cc2ccc(Cl)cc2)c2ccccc12
5. COC(=O)c1sc(=S)sc1SCc1ccc(CSc2sc(=S)sc2C(=O)OC)cc1
6. Cc1cccc(N(C(=O)Nc2ccc(Cl)c(Cl)c2)C2=NCC(C)S2)c1 (centres undefined)
7. N#CC(=C1CCN(CCCC(=O)c2ccc(F)cc2)CC1)c1ccccc1
8. CC(=O)O[C@H]1[C@@H]2OC(=O)[C@@](O)(CC3CCCO3)[C@@H]2CC(=O)[C@](C)(O)CC/C=C(\C)CCC[C@@H]1C (some centres undefined)

## Output
1: > 100 µM; 2: 33.6 µM; 3: 17 µM; 4: > 100 µM; 5: > 100 µM; 6: > 100 µM; 7: > 100 µM; 8: > 100 µM

Go through the items and report each one's TGI.
1. Cn1c(O)c(C=Nc2ccccc2[N+](=O)[O-])c(=O)n(C)c1=O
2. Nc1nc(N)c2nc(CNc3ccc(C(=O)NC(CC(=O)O)C(=O)O)cc3)cnc2n1 (centres undefined)
3. N#C/C(c1nc2ccccc2[nH]1)=c1\s/c(=C/c2ccc(Cl)cc2)c(=O)n1-c1ccccc1
4. Clc1cc2c(cc1Cl)CC(NCCN1CCCC1)CC2 (centres undefined)
5. CCOC(=O)C1=NN(c2ccc(C)cc2)C2=CC(C)=NN(C)C(=S)N21
6. O=C(c1ccc(Cl)cc1)N(C(=O)N1CCC(c2ccccc2)CC1)c1ccccc1

## Output
> 100 µM
> 100 µM
> 100 µM
31.1 µM
> 100 µM
> 100 µM

Provide the reported TGI of each entry below, same order.
1. CCN(CC(=O)O)C(=O)c1cccnc1
2. CC(C)=CCC/C(=C/CC/C(=C\CCc1ccoc1)C(=O)O)C(=O)O
3. COC1OC(CBr)C(OC(=O)c2ccccc2)C(O)C1Br (centres undefined)

## Output
1: > 100 µM; 2: > 100 µM; 3: > 100 µM

Batch of 3 compounds: report TGI for each.
1. O=c1oc(Cl)c(Cl)c2ccccc12
2. CCOC(=O)c1nc2ccccc2nc1NCc1cc(OC)c(OC)c(OC)c1
3. O=C(O)C1OC1(c1cccc(Cl)c1)c1ccccc1Cl (centres undefined)

## Output
1. 52.1 µM
2. > 100 µM
3. 25.4 µM

// for each compound in input: emit TGI
1. CCCCC[C@H]1C/C=C2/C(=O)C=C[C@@H]2C/C=C\CCCC(=O)O[C@@H](CCCCC)C/C=C2/C(=O)C=C[C@@H]2C/C=C\CCCC(=O)O1
2. O=C(/C=C/c1ccc(O)c(-c2cc(C(=O)/C=C/c3ccc(O)cc3)c(O)cc2O)c1)c1ccc(O)cc1O
3. O=C(C[n+]1ccc2ccccc2c1)c1ccc2ccc3ccccc3c2c1
4. COC(=O)C1CN=CN1CCc1ccccc1 (centres undefined)

## Output
1: 0.473 µM; 2: > 50 µM; 3: 14.6 µM; 4: > 100 µM
